Each record here notes measured IC50.
# test.system: IRAK4 (Homo sapiens, UniProt Q9NWZ3)
# Construct: His-TEV-IRAK4 (1-460); His (N); TEV cleavage site (N)
# Sequence (Q9NWZ3 whole entry): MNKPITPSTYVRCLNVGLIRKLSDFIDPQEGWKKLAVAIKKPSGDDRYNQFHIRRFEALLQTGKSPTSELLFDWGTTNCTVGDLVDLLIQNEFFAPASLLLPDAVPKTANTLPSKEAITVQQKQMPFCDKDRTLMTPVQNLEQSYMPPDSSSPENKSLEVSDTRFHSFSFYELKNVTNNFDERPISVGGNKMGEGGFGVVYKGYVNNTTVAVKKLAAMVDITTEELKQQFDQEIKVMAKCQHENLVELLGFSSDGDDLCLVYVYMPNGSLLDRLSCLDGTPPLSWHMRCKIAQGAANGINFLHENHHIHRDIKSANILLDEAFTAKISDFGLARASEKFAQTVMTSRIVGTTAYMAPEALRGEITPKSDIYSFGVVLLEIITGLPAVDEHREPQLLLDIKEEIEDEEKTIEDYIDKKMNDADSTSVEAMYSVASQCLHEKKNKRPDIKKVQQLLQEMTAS
# assay.comment: IRAK4 enzymatic assay (ADP-Glo luminescence)
# experimental.context: human recombinant His-TEV-IRAK4 (1-460), STK1-biotin peptide substrate

Some molecules with known IC50 results, for comparison:
{"molecule": "CN1CCC(c2ccc3c(c2)[nH]/c(=N\\C(=O)c2cccc(C(F)(F)F)c2)n3CCC(O)CO)C1=O (single isomer, unassigned) [Compound 21b]", "IC50": "≤ 100 nM"}
{"molecule": "CN1CCC(C)(c2ccc3c(c2)nc(NC(=O)c2cccc(C(F)(F)F)c2)n3CCCO)C1=O (single isomer, unassigned) [Compound 29a]", "IC50": "≤ 100 nM"}
{"molecule": "CN1CCCC(c2ccc3c(c2)[nH]/c(=N\\C(=O)c2cccc(C(F)(F)F)c2)n3CCCO)C1=O (stereo not shown)", "IC50": "≤ 100 nM"}

// moving on: another record for IC50
Query: Consider the molecule shown here: O=C(/N=c1\[nH]c2cc(C3CCCCC3=O)ccc2n1CCCO)c1cccc(C(F)(F)F)c1 (stereo not shown) What is its recorded IC50?
Reply: ≤ 100 nM
